run-description: Bioavailability in Sprague-Dawley rat at 3.0 mg/kg, po
Assay type: ADME, organism-based
particulars: in vivo
measured-parameter: bioavailability

[[record]]
given_smiles = "O=C(NCc1nc2cccnc2n1C1(c2ccccc2)CC1)[C@@H](Cc1c(F)cccc1F)NC(=O)C1(C(F)(F)F)CC1"
result = "54%"

[[record]]
given_smiles = "CC(C)(C)OC(=O)N[C@H](Cc1ccccc1C(F)(F)F)C(=O)NCc1nc2cccnc2n1Cc1ccccc1"
result = "41%"

[[record]]
given_smiles = "CC(C)(C)Cn1c(CNC(=O)[C@@H](Cc2ccccc2C(F)(F)F)NC(=O)OC(C)(C)C)nc2cccnc21"
result = "17%"

[[record]]
given_smiles = "CC(C)(C)OC(=O)N[C@H](Cc1ccccc1C(F)(F)F)C(=O)NCc1nc2cccnc2n1C(C)(C)C"
result = "31%"

[[record]]
given_smiles = "CC(C)(C)OC(=O)N[C@H](Cc1ccccc1C(F)(F)F)C(=O)NCc1nc2cccnc2n1C1(c2ccccc2)CC1"
result = "44%"

